- Test system: Calu-3 cells
- COND: read-out: CC50 MTT, 72h
PARAMETER: CC50 (µM)
One number for each entry, in µM.

Data point: "[H]/N=C(/N)N/C(=N/[H])NCCc1ccccc1" ; CC50 = 1520

---

- ASSAY TEXT: in vitro
- COND: human, calu-3 cells, CC50 IncuCyte, 72h, cell confluency
PARAMETER: CC50 at 72 h

Data point: COc1[nH]c(=O)c(C(=O)C(C)CC(C)C(Cl)CCl)c(O)c1OC (stereo not shown) ; CC50 at 72 h = > 160 µM

---

- System: Calu-3 cells
- COND: read-out: CC50 IncuCyte, 72h, cell confluency, 4320 min
PARAMETER: CC50

Data point: COc1[nH]c(=O)c(C(=O)C(C)CC(C)C(Cl)CCl)c(O)c1OC (stereo not shown) [Atpenin A5] ; CC50 = > 80 µM
